// data source = the supplement of paper PMC10567573

Kindly state protein stability index for each of the entries shown.
B1: EPB41L3 (parent)
chain: SMQCKVILLDGSEYTCDVEKRSRG

variants of: B1; assay: protein stability index of a GFP-peptide fusion (GPS, HEK-293T) (PSI 1-6); higher = more stable; details: c terminus: a fixed tail appended;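 also: lentivirally expressed fusions sorted by FACS into six bins by GFP to DsRed ratio, PSI derived from sequencing read proportions per bin multiplied by bin number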
One number for each entry.

Check out these entries, answers already filled in.
(Q) Give its protein stability index value. Item: V18C
(A) 2.29

(Q) Give its protein stability index value. Item: R23I
(A) 2.45

(Q) Give its protein stability index value. Item: M2A
(A) 3.24

(Q) Give its protein stability index value. Item: T15Y
(A) 2.58

(Q) Give its protein stability index value. Item: D10M
(A) 1.5

(Q) Give its protein stability index value. Item: I7S
(A) 3.91

(Q) Give its protein stability index value. Item: C4H
(A) 3.46

(Q) Give its protein stability index value. Item: G24A
(A) 3.43

Count: 5. Required value per item: protein stability index.
1. R21K
2. K5R
3. T15F
4. I7F
5. G24I

(A)
1: 3.56; 2: 2.06; 3: 1.63; 4: 2.39; 5: 1.98
